System: PPARg:RXRa 30nM:10nM, anti-RXR (NR concentration 30 nM, RXRa partner concentration 10 nM)
Assay: PBM binding z-score (relative to random genomic background probes); higher = stronger binding; sequences stand for … in GC…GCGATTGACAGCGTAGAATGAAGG
Quick rule for you: PBM binding z-score at 0.4 or higher means Yes, lower means No.

Example results:
- polymerSequence: "GCAGACAGGTGAAACGCAGGTAAATCAGGGTGGC"
  qualitativeLabel: "No"
- polymerSequence: "TCATATAGGTAAAGGTGGAAGTCGAACGATATGA"
  qualitativeLabel: "Yes"

// inclusive: PBM binding z-score at least 0.4? input: "CAAACTAGGTCAAGGTCAATGTCGGTTTGTGCCA" Yes

Textbook exercise: given the entry "ATCGAAAAGTCGACGAGGTGAGTATACACCGTTT" , state whether its PBM binding z-score is greater than or equal to 0.4. No

Confirm if PBM binding z-score reported for the sequence "TCGAGTAGGTTGGGGGCATTCAGAATGGCGTCGA" is 0.4 or above. Yes

Textbook exercise: given the entry "ATATGTAGGTTATCGGGTCATGCAGTTTGCGCAT" , state whether its PBM binding z-score is greater than or equal to 0.4. Yes

Form field: PBM binding z-score at least 0.4? Entry: "TCTTGTAGACCAAAGGTTAAGAAAGCCGAAGCCT" Yes

Hello, I need to know if "GCCTACGGGTCAAAGGTTATAGCATGAATAGAAT" has measured PBM binding z-score not below 0.4. Thanks! Yes

Determine whether this sequence has PBM binding z-score no lower than 0.4: "TCGAGTAGGTTAGTCGGGGCATTAAGCCAACATA" Yes

# bool: PBM binding z-score of "AGAACGAGGGCACGCAGAGTTGATAGCAGAGTAG" >= 0.4 No

Reported PBM binding z-score at or above 0.4? "ATCTCTAGGTAAGACTCAGTTTAGTGAAGAACGC" No

Quick check: does "TCTTGAAGATCAACAGGAGGTTAAGAAAGATCGA" have PBM binding z-score greater than or equal to 0.4? Yes

Quick check, PBM binding z-score >= 0.4? "GCTAGCAGGCCATTTGGGTCGCTCAATGACGGGC" No

Determine whether measured PBM binding z-score meets or exceeds 0.4 for "CCTTACGGGTCAATCCAGGTTATAGCATCGGAGT" Yes

State whether the measured PBM binding z-score reaches 0.4, counting equality as reaching it, for "ATCTCTAGGTAAGACTCAGTTCAGTCAAGAACGC" No

Can "AGAATGAGGTTATACGTAGATCAGGCAAGAAAGT" be said to have PBM binding z-score at or above 0.4? Yes
